Values compiled from paper PMC6643034.

binders and their reported Kd
- target-system: CXCL3 (human, UniProt P19876 35-107)
- assay-summary: BLI

Previously resolved entries follow.
INSERT INTO results (binder, reported_value) VALUES
  ('P1126 (natural protein, also: glycosylated) DGGKPQILQRTDKSTDSEWDPQTCPETCIPSKNITCSDGCVCVKLGEEEEGTCFNMTGVDWLGSPSDD', '13.3 nM'),
  ('P675 (natural protein, also: glycosylated) GSNQLSGPQSSANSNDAVFCDTNCTQGTDGAWSGCRGDCFCVHVGNSTEGRCIELIGDFDYSTPGAED', '35.7 nM'),
  ('P942 (natural protein, also: glycosylated) DGGNQLSGPQSSANSNEAVFCDTNCTQGTDEAWSGCRGDCFCVYVGNSTEGRCMMLSGDFDYSTPGAED', '5.04 nM'),
  ('P1142 (natural protein, glycosylated (periodic acid–Schiff staining)) DGGKPQILQRTDHSTDSDWDPQMCPETCNPSKNISCSSECLCVTLGGGDETGTCFNMSGVDWLGHAQASDGHNDGGGASAWSHPQFEKLEHHHHHHHH', '5.65 nM'),
  ('P1086_IXORI (natural protein) GSKGQRASQVSETSITAEFCDTSCTQGTDKTWSGCSGDCFCVHVGNDTEGRCMRWDGDYPSAEEEE', '15.2 nM');

binder Evasin 3 (EVA3) (natural protein, also: glycosylated) DGGLVSTIESRTSGDGADNFDVVSCNKNCTSGQNECPEGCFCGLLGQNKKGHCYKIIGNLSGEPPVVRR , Kd observed: 7.37 nM

Reported Kd ( P1124_IXORI (natural protein) DSKGTSDSQDSTKSIKVDFCETNCTKTDGGWTGCTGDCICVSVGDSIEGRCMDFG ) = 8.84 nM
